# targetOrSystem: OsWRKY34 (Oryza sativa, UniProt Q0JBA9 1-250)
# Sequence (Q0JBA9 entry or part of it): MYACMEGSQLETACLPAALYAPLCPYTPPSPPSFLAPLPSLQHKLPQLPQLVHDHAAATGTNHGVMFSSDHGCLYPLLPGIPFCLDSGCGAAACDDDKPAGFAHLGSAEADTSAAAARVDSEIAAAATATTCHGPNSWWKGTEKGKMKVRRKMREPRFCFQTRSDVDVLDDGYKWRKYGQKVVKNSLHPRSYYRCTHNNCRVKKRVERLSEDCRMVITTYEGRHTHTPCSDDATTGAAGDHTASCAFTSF
# protocolDetails: protein-binding microarray (RPBM); PBS, 2% BSA, 51.3 ng/ul salmon testes DNA, 50 uM zinc acetate, 200 nM TF, 25 C, 1 h; high values mean tight binding
# assaySetup: protein: recombinant; tags: N-terminal polyhistidine and DsRed monomer fusion (pET32a); label: CyDye5-dUTP incorporated in the synthesized complementary strand; 3' TTTTT single-stranded linker to array surface; dsDNA, one strand shown
Over roughly 68,000 sequences, “fluorescence intensity (a.u.)” has its median near 9,100; the highest 2% begin near 16,000. The sample as a whole holds a higher share of the highest values than the screen did.
In this section, each of the sequences is paired with its reported binding signal.

Sample records with binding signal:
1) TCATTGTTCTCACTTCCTCGTCTTGAGCACTTGAGTCTCTCGGAGTCACCTAGTGCAG: 8420 fluorescence intensity (a.u.)
2) CGAAATGGGAGGCGGGGTTTAGGGTTTCCGGCGGGGAGGGCGGAGTCACCTAGTGCAG: 25200 fluorescence intensity (a.u.)
3) CTCCGTTTTTTAATAGATGACACCGTTGACTTTTTCTCACCGGAGTCACCTAGTGCAG: 30600 fluorescence intensity (a.u.)
4) TGGTGGCGTCTGTATTGGGTTTCTTTCTCCAAGTTATATTCGGAGTCACCTAGTGCAG: 9710 fluorescence intensity (a.u.)

Exercise: Look up binding signal of `AGGAGGGGAGGCGCGGCGGAGGAGAAGAGGTGGGGATGGACGGAGTCACCTAGTGCAG` and report it.
Key: 10000 fluorescence intensity (a.u.)
